assay_name: yeast display, Sf9 membrane polyspecificity reagent, FACS + sequencing; frameworks hold sequencing errors
quantity_name: polyreactivity (PSR sort gate)

- sequence_record: "QVQLVETGGGLVQAGGSLRLSCAPSGLSIGYYAMGWYRQAPGKEREFVAAITWNGGSTYADSVKGLFTISRDNAKNTVYLQMNSLKPEDTAVYYCAADLSYWDDFDYWGQGTQVTVSS"
  assay_value: "low polyreactivity"
- sequence_record: "QVQHVESGGGLVQAGGSLRLSCSASGRTFNFYTMGWYRQAPGKEREFVAGITSTGGSTDYADSVKGRFTISRDNAKNTVYLQMNSLKPEDTAVYYCNALRRWWEPYWTYNYWGQGTQVTVSS"
  assay_value: "high polyreactivity"
- sequence_record: "QVQLVESGGGLVQAGGSLRLSCAASGFTYLRYAMGWYRQAPGKERELVAAISFSGDTTNYADSVKGRFTISRDNAKNTVYLQMNSLKPEDTAVYYCAASYGGGYYSDRGYYYWGQGTQVTVSS"
  assay_value: "low polyreactivity"
- sequence_record: "QVQLVESGGGLVQAGGSLRLSCAASGYIFGFYAKGWYRQAPGKERELVARITYSGTSTYYADSVKGRFTISRDNAKNTVYLQMNSLKPEDTAVYYCAKRNKRSAWDSDEYDYWGQGTQVTVSS"
  assay_value: "low polyreactivity"
- sequence_record: "QVQLVESGGGLVQAGCSLSLSCAASGSIFGRYTMGWYRQAPGKERELVAAINLRGGSTYYADSVKGRFTISRDNAKNTVYLQMNSLKPEDTAVYYCATVGWKQSAYDYWGQGTQVTVSS"
  assay_value: "low polyreactivity"
- sequence_record: "QVQLVESGGGLVQAGGSLRLSCAASGSTFPSYAMGWYRQAPGKERELVAAINSGGGTNYADSVKGRFTISRDNAKNTVYLQMNSLKPEDTAVYYCAKSRYDYNKTEGGYWGQGTQVTVSS"
  assay_value: "low polyreactivity"
- sequence_record: "QVQLVESGGGLVQAGGRLRLSCAASGFTFRYYAMGWSRQAPGKERELVAGISYRGTSTYYADSVKGRFTISRDNAKNTVYLQMNSLKPEDTAVYYCADEVRYDRHDYWGQGTQVTVSS"
  assay_value: "high polyreactivity"
- sequence_record: "QVQLVESGRGLVQAGGSLRLSCAASGSTLYAYAMGWYRQAPGKESELVAAIRRGGRTNYADSVKGRFTISRDNAKNTVYLQMNSLKPEDTAVYYCAARGSKPYSNRLLDYWGLGTQVTVSS"
  assay_value: "high polyreactivity"
- sequence_record: "QVQLVESGGGLVQAGGSLRLSCAASGLIFVQNAMGWYRQAPGKERELVAAISSRGTNTYYADSVKGRFTISRDNAKNTVYLQMNSLKPEDTAVYYCAKPLKTPRPNYDYWGQGTQVTVSS"
  assay_value: "low polyreactivity"
- sequence_record: "QVQLVESGGGLVQAGGSLRLSCAASGFIFWRYAMGWYRQAPGKDRELVAAISSTGRTYYADSVKGRFTISRDNAKNTVYLQMNSLKPEDTAVYYCNAAPVYLADPTRKYKADYWGQGTQVTVSS"
  assay_value: "low polyreactivity"
- sequence_record: "QVQLVESGGGLVQAGGSLRLSCAASGFIFSKYAMGWYRQAPGKERELVASISTSGGSTYYADSVKGRFTISRDNAKNTVYLQMNSLKPEDTAVYYCAVASRSHGYKRAYYYWGQGTQVTVSS"
  assay_value: "high polyreactivity"
- sequence_record: "QVQLVESGGGLVQAGGSLRLSCAASGSIFTYYAMGWYRQAPGKERELVAAISGSGGRTYYADSVKGRFTISRDNAKNPVYLQMNSLKPEDTAVYYCAVRSYRRFTHLYYRYDYWGQGTQVTVSS"
  assay_value: "high polyreactivity"
- sequence_record: "QVQLVESGGGLVQAGGSLRLSCAASGRTFKYYAMGWYRQAPGKERELVAAISRGGSTNYADSVKGRFTISRDNAKNTVYLQVNSLKPEDTPVYYCAKDYVWYDEYDYWGQGTQVTVSS"
  assay_value: "low polyreactivity"
- sequence_record: "QVQLVESGGGLVQAGGSLRLSCAASGSILYVNAMGWYRQAPGKERELVAVITSGGSTNNADSVKGRFTISRDNAKNTVYLQMNSLKPEDTAVYYCAADPYSVYGGDYWGQGTQVTVSS"
  assay_value: "low polyreactivity"
- sequence_record: "QVQLVESAGGLVQAGGSLRLSCAASGSTFYLNAMGWYRQAPGKERELVATINSSGSTYYADSVKGRFTISRDNAKNTVYLQMNSLKPEDTAVYYCNTVDSYVRSDYWGQGTQVPVSS"
  assay_value: "low polyreactivity"
- sequence_record: "QVQLVESGGGLVQAGGSLRLSCAASGFIFRYYAMGWYRQAPGKERELVAAISWSGGSTYYADSVKGRFTISRDNAKNTVYLQMNSLKPEDTAVYYCNARYKYLFTVSRYDYWGQGTQVTVSS"
  assay_value: "high polyreactivity"
- sequence_record: "QVQLVESGGGLVQAGGSLRLSCACSGSTFRWYTMGWYRQAPGKECELVAAISISGTSTYYADSVNGRFTISRDNAKNTVYLQMNSLTPEDTAVYYCAADPPSRWGDYWGQGTQVTVSS"
  assay_value: "high polyreactivity"
- sequence_record: "QVQLVESGGGLVQAGGSLRLSCAASGSTFSTNAMGWYRQAPGKESELVASITRSGGSTYYADSVKGRFTISRDNAKNTVYLQMNSLKPEDTAVYYCNADGYYDYDYGYWGQGTQVTVSS"
  assay_value: "low polyreactivity"
- sequence_record: "QVQLVESGGALVQAGGSLRLSCAASGSIFGSYALGWYRQAPGKERELVASITRVDSTNYADSVKGRFTISRDNAKNTVYLQMNSLKPEDTAVYYCAADITSPAYATYDYWGQGTQVTVSS"
  assay_value: "low polyreactivity"
- sequence_record: "QVQLVESGGGLVQAGGSLRLSCAASGSIVGYYFMGWYRQAPGKERELVAAITRSGSTYYADSVKGRFTISRDNEKNTVYLQMNSLKPEDTAVYYCAADGSYYWYTHTTYDYWGQGTQVTVSS"
  assay_value: "low polyreactivity"
- sequence_record: "QVQLVESGGGLVQAGGSLRLSCAASGNTFGAYTMGWYRQAPGKEREFVAAISYSGGITFYADSVKGRFTISRDNAKNTVYLQMNSLKPEDTAVYYCAARTYRYGYWYDYWGQGTQVTVSS"
  assay_value: "high polyreactivity"
